experimental.system: T1, recombinant human activated Factor VII (FVIIa) (human, UniProt P08709 61-212; P08709 213-466, ten glutamate residues of the Gla domain may be gamma-carboxylated)
T1 construct: chains tethered by a disulfide bond; also called Factor VIIa; rFVIIa
T1 sequence 1: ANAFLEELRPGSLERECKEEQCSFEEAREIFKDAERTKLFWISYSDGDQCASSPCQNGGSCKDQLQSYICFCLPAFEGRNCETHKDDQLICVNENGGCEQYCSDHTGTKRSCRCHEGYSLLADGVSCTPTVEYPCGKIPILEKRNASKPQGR
T1 sequence 2: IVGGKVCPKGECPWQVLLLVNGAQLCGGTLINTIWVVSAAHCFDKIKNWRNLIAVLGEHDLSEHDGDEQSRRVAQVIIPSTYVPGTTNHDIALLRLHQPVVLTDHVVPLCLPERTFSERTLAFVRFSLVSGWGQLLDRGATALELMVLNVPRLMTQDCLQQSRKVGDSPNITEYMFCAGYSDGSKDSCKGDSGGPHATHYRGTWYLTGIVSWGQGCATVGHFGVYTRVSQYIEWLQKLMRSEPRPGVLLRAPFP
measurement.protocol: BLI (Fortebio)
measurement.kind: Kd (nM)
Provide only the numeric value, understood in nM.

>  <binder>
VH SEQ ID NO 650 / VL SEQ ID NO 406 (antibody, IgG4, V domains shown, humanized 11F2; IgG4 S228P/kappa) VH: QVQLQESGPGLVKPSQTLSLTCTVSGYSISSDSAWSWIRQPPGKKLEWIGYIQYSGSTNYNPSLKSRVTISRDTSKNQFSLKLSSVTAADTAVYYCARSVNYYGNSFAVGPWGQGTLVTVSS VL: EIVLTQSPATLSLSPGERATLSCRASQGVSDYLAWYQQKPGQAPRLLIKYASQPATGIPARFSGSGSGTDFTLTISSLEPEDFAVYYCQNGHSFPLTFGAGTKLEIK

>  <Kd / nM>
180

$$$$

// below: Kd requested for another binder
Request the reported Kd associated with VH SEQ ID NO 626 / VL SEQ ID NO 478 (antibody, IgG4, V domains shown, humanized 11F2; IgG4 S228P/kappa) VH: QVQLQESGPGLVKPSQTLSLTCTVSGYSISSDSAWSWIRQPPGKGLEWIGYIQYSGSTNYNPSLKSRVTISRDTSKNQFSLKLSSVTAADTAVYYCARSVNYYGNSFAVGPWGQGTLVTVSS VL: EIVLTQSPATLSLSPGERATLSCRASQGVSDYLHWYQQKPGQAPRLLIKYASQPATGIPARFSGSGSGTDFTLTISSLEPEDFAVYYCQQGHSFPLTFGQGTKLEIK 2.5
